Entries and their Background % values follow.
tested on: CD4+ T-cells and dendritic cells; experiment: I-MUNE assay: CD4+ T-cell proliferation to 15-mer peptide sets presented by dendritic cells; assay type: cell-based, human; conditions: Table 3
Readout name: Background % (%)

| Molecule | Readout name | Result unit | Recorded number |
| --- | --- | --- | --- |
| B. lentus subtilisin: Bacillus lentus subtilisin, industrial protease, Swissprot accession number P29600 (protein, UniProt P29600 1-269, looked up) Subtilisin Savinase: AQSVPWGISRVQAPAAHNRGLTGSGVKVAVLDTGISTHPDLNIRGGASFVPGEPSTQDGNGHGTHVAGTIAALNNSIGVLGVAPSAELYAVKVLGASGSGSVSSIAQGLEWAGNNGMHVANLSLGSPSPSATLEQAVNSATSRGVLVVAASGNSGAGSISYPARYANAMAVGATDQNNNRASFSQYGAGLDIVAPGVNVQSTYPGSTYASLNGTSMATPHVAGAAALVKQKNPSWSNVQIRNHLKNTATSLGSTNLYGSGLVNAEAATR | Background % | % | 3.45 |
| BPN′ Y217L: B. amyloliquifaciens subtilisin BPN′ Y217L, Swissprot accession number P00782 (protein, UniProt P00782 108-382, looked up, variant Y217L) Subtilisin BPN': AQSVPYGVSQIKAPALHSQGYTGSNVKVAVIDSGIDSSHPDLKVAGGASMVPSETNPFQDNNSHGTHVAGTVAALNNSIGVLGVAPSASLYAVKVLGADGSGQYSWIINGIEWAIANNMDVINMSLGGPSGSAALKAAVDKAVASGVVVVAAAGNEGTSGSSSTVGYPGKYPSVIAVGAVDSSNQRASFSSVGPELDVMAPGVSIQSTLPGNKYGALNGTSMASPHVAGAAALILSKHPNWTNTQVRSSLENTTTKLGDSFYYGKGLINVQAAAQ | Background % | % | 3.65 |
| ALCALASE ®: ALCALASE® enzyme, commercially available from Novo, Swissprot accession number P00780 (protein, UniProt P00780 106-379, looked up) Subtilisin Carlsberg: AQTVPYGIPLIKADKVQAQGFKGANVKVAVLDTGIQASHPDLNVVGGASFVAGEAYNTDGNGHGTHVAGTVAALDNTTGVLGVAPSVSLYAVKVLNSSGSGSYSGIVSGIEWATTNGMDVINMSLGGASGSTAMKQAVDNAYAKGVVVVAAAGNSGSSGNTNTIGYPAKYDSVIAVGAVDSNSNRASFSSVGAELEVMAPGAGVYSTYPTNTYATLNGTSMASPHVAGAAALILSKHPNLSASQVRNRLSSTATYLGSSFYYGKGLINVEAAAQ | Background % | % | 2.35 |
